Cited source: paper PMC5540273

# Tested on: NDR1;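 also: KINOMEscan kinase panel screen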
# Construct: gene STK38
# REPORTED CONDITIONS: concentration: 1 μM, replicates: in singlicate; n = 1
Classification field: y = %Inh at or over 20%; n = %Inh under 20%.

{"columns": ["MOLECULE", "CLASS LABEL"],
 "data": [
  ["Cl.c1ccc(Cn2cnc3cc(Nc4ncnc5ccccc45)ccc32)cc1 [GW272142]", "n"],
  ["O=C(Nc1n[nH]c2cc(-c3ccccc3F)ccc12)C1CC1 [SB-733371]", "y"],
  ["CCCC(=O)Nc1n[nH]c2ncc(-c3cccc4ccccc34)cc12 [SB-642057]", "n"],
  ["COc1cc2ncn(-c3cc(OCc4ccncc4Br)c(C(N)=O)s3)c2cc1OC [GW854278]", "n"],
  ["O=C(Nc1n[nH]c2nc(-c3ccccc3)c(Br)cc12)C1CC1 [SB-708998]", "n"],
  ["CCn1c(-c2nonc2N)nc2ccccc21 [SB-693162/GW549034]", "y"],
  ["FC(F)(F)c1ccc(-c2ncn(CCCN3CCOCC3)c2-c2ccncc2)cc1 [SB-217780]", "n"],
  ["Cn1c(=O)c(F)c(Nc2ccc(I)cc2F)c2c(=O)n(OC[C@H](O)CO)cnc21", "n"],
  ["COC(=O)c1c(-c2ccccc2)c2cc(Br)ccc2c(=O)n1Cc1ccc(S(C)(=O)=O)cc1", "n"],
  ["COc1cccc(C2=C(Nc3cccc(C(=O)O)c3)C(=O)NC2=O)c1 [SB-390770]", "n"],
  ["COc1cccc(C2=C(N(C)c3ccccc3)C(=O)NC2=O)c1 [SB-334865]", "n"],
  ["Cc1cccc(-c2cc(-c3c[nH]nc3-c3ccccn3)ccn2)c1 [GW679395]", "n"],
  ["O=C(NCc1cccs1)c1cc(C(=O)c2c(Cl)cccc2Cl)c[nH]1 [GW823670]", "y"],
  ["Cc1nnc(-c2ccc3ncn(-c4ccc(S(C)=O)cc4)c3c2)o1 (stereo not shown)", "y"],
  ["Cc1nn2c(=O)cc(N3CCOCC3)nc2n1Cc1cccc(Cl)c1Cl [GSK2342769]", "n"],
  ["Nc1ncnc2c1ncn2-c1cccc2ccccc12 [SKF-97184]", "y"],
  ["COc1cc2nccc(Nc3ccc(OCc4ccc(NC(C)=O)cc4)cc3)c2cc1OC.Cl [GW440135]", "n"],
  ["Cl.NS(=O)(=O)c1cccc(Nc2cc(-c3ccc(F)cc3)n[nH]2)c1 [GW824645]", "y"],
  ["COc1ccc(-c2coc3ccc(-c4nnc(SCc5cccc(C#N)c5)o4)cc23)cc1", "n"]
]}
